Molecular target: butyrylcholinesterase (BuChE, E.C. 3.1.1.8, from equine serum) (Equus caballus)
Construct: butyrylcholinesterase (BuChE, E.C. 3.1.1.8, from equine serum); purchased Sigma-Aldrich (Steinheim, Germany); host or cells: equine serum (natural source)
Sequence (P81908 whole entry): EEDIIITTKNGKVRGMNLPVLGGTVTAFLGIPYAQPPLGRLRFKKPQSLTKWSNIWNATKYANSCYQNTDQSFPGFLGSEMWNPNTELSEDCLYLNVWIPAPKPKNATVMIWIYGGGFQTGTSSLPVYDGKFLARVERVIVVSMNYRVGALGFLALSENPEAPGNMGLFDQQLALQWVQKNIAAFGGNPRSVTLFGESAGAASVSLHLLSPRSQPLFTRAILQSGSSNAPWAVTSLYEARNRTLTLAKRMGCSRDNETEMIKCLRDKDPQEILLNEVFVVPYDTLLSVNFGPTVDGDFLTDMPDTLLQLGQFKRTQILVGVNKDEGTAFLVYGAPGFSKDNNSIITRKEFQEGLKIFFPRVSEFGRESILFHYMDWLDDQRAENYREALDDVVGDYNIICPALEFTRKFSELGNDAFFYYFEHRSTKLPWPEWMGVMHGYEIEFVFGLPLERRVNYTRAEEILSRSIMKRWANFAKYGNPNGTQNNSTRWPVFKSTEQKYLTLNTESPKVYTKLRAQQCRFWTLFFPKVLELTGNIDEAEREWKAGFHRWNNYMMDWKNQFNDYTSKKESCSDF
Assay: biochemical
Protocol: The details were described previously. Their potency was determined using the modified Ellman’s method and expressed as the half of maximal inhibitory concentration, IC50 [34].
Quantity: pIC50
One number for each entry, as −log10 of the molar value.

Form: Entry = CN(C)C(=O)Oc1cccc([N+](C)(C)C)c1 [neostigmine, reference compound] | System = butyrylcholinesterase (BuChE, E.C. 3.1.1.8, from equine serum) (Equus caballus) | pIC50 = ____
7.17

###

molecular target: Amyloid β-peptide (1–42) (Aβ42) (Homo sapiens); construct: Amyloid β-peptide, (1–42) (Aβ42), was purchased from Aldrich; purchased Aldrich; assay: biochemical; conditions: ThT fluorescence, 24 h at 37 °C; means ± SD of three experiments; read-out: IC50(Aβ(1–42)) self-induced aggregation
Sequence (P05067 672-713 limits assumed): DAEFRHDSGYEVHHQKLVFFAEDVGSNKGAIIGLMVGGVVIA
Can you tell me IC50 for the items I'm about to list?
Answers are plain numbers, in µM.

Batch: IC50 for all items listed.
1. COc1ccc2nc(-c3cc(Cl)c(O)cc3O)[nH]c2c1
2. COc1ccc2nc(-c3ccc(O)c(C)c3O)[nH]c2c1
3. Oc1cc(O)c(-c2nc3ccccc3[nH]2)cc1Cl

27
33.1
48

###

molecular target: Acetylcholinesterase (AChE, E.C. 3.1.1.7, from human erythrocytes) (Homo sapiens)
Sequence (P22303 32-617 isoform P22303-2 limits assumed): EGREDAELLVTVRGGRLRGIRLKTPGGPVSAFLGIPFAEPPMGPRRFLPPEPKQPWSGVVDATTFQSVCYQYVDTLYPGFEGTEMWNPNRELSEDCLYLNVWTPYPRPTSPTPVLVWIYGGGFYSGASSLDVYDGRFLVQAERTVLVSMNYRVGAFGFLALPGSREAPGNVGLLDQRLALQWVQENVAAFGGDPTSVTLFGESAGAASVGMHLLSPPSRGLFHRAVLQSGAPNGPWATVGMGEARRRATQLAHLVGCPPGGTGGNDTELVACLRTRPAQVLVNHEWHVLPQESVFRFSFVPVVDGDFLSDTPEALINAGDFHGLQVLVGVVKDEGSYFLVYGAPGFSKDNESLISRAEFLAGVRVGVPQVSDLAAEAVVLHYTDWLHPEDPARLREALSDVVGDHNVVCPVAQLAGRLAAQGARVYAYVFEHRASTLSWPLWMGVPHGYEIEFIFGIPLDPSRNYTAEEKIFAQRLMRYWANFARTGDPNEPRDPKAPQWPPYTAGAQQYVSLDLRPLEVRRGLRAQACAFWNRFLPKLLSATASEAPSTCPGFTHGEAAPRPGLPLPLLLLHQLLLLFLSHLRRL
IC50 strictly under 0.3 µM means condition met; at 0.3 µM or over means condition not met.

Consider the following illustrative entries.
Quick check: IC50 of COc1ccc2nc(-c3cc(Cl)c(O)cc3O)[nH]c2c1 under 0.3 µM?
condition met

Param item: CCOC(=O)c1ccc2[nH]c(-c3ccc(O)c(C)c3O)nc2c1
condition met

Param item: Oc1ccc(-c2nc3ccccc3[nH]2)c(O)c1 [bib-1,3-diol, 4-(1H-benzimidazol-2-yl)benzene-1,3-diol, reference compound]
condition met

Param item: Cc1c(O)ccc(-c2nc3ccc(C(F)(F)F)cc3[nH]2)c1O
condition met

Param item: Oc1cc(O)c(-c2nc3cc(Cl)c(Cl)cc3[nH]2)cc1Cl
condition not met

Param item: CCc1cc(-c2nc3cc(C(F)(F)F)cc(Cl)c3[nH]2)c(O)cc1O
condition met

Continuing:
Quick check: IC50 of COc1ccc2nc(-c3ccc(O)c(C)c3O)[nH]c2c1 under 0.3 µM?
condition met

Param item: Cc1c(O)ccc(-c2nc3ccc([N+](=O)[O-])cc3[nH]2)c1O
condition not met

Param item: Cc1c(O)ccc(-c2nc3ccc(C#N)cc3[nH]2)c1O
condition not met

###

assay: RP-18 HPLC chromatography lipophilicity estimation; assay type: physicochemical; settings: methanol/acetate buffer pH 4.0, extrapolated to pure water
Assign label 1 to entries whose log kw (intercept) meets or exceeds 4; assign label 0 to the rest.

Consider the following illustrative entries.
Determine whether this compound has log kw (intercept) no lower than 4: CCOC(=O)c1ccc2[nH]c(-c3ccc(O)c(C)c3O)nc2c1
label 0

Param item: O=[N+]([O-])c1ccc2nc(-c3ccc(O)cc3O)[nH]c2c1
label 0

Param item: CCOC(=O)c1ccc2[nH]c(-c3c(O)cc(O)cc3O)nc2c1
label 0

Param item: COc1ccc2nc(-c3cc(Cl)c(O)cc3O)[nH]c2c1
label 1

Param item: Cc1c(O)ccc(-c2nc3ccc([N+](=O)[O-])cc3[nH]2)c1O
label 0

Param item: Cc1c(O)ccc(-c2nc3ccc(C#N)cc3[nH]2)c1O
label 0

Continuing:
Determine whether this compound has log kw (intercept) no lower than 4: CCOC(=O)c1ccc2[nH]c(-c3cc(CC)c(O)cc3O)nc2c1
label 0

Param item: CCc1cc(-c2nc3ccc(C#N)cc3[nH]2)c(O)cc1O
label 0

Param item: COc1ccc2nc(-c3ccc(O)c(O)c3O)[nH]c2c1
label 0

Param item: COc1ccc2nc(-c3ccc(O)c(C)c3O)[nH]c2c1
label 1

Param item: Oc1cc(O)c(-c2nc3cc(Cl)c(Cl)cc3[nH]2)cc1Cl
label 1

Param item: Cc1c(O)ccc(-c2nc3ccc(C(F)(F)F)cc3[nH]2)c1O
label 1

Param item: Oc1cc(O)c(-c2nc3ccccc3[nH]2)cc1Cl
label 0

Param item: CCc1cc(-c2nc3cc(C(F)(F)F)cc(Cl)c3[nH]2)c(O)cc1O
label 1

Param item: Oc1ccc(-c2nc3ccccc3[nH]2)c(O)c1 [bib-1,3-diol, 4-(1H-benzimidazol-2-yl)benzene-1,3-diol, reference compound]
label 0
